molecular target: HDAC3 (Homo sapiens, UniProt O15379); construct: purchased Reaction Biology Corporation (assay run by the CRO); experiment: HDAC3 inhibition, full IC50 measurement (Reaction Biology; fluorogenic p53 peptide RHKK(Ac)AMC); type: biochemical; conditions: Conc. 1.00E-05 M, t2
Sequence (O15379 whole entry): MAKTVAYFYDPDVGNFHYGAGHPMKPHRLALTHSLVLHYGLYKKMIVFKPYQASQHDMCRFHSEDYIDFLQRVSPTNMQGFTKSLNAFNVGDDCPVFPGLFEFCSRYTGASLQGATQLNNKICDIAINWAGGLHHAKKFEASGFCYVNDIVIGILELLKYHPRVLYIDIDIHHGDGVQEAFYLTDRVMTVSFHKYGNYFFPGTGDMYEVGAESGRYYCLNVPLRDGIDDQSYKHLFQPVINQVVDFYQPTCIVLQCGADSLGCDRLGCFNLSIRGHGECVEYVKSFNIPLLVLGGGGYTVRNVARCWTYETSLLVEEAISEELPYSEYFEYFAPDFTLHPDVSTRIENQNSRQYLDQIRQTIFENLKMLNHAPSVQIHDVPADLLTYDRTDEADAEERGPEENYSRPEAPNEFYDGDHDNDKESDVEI
Sequence (Q9Y618 395-489 partner limits assumed): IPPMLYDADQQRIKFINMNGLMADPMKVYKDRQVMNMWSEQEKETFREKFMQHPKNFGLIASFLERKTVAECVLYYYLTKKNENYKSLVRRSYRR
Peptide text beside a SMILES is read from it.
Measured HDAC3 activity raw data (signal), listed per entry for reference.

compound	HDAC3 activity raw data (signal)
N=C(N)NCCC[C@@H]1NC(=O)[C@H](Cc2c[nH]c3ccccc23)NC(=O)[C@H](CC(=O)O)NC(=O)[C@@H](CO)NC(=O)[C@H](Cc2c[nH]c3ccccc23)NC(=O)[C@H](CCCCCS)NC(=O)[C@H](CCC(N)=O)NC1=O [des4.1.0, SHA-Trp-dSer-Asp-Trp-Arg-Gln] (HELM PEPTIDE1{D.W.R.Q.[O=C([C@H](CCCCCS)N[*:1])[*:2]].W.[dS]}$PEPTIDE1,PEPTIDE1,1:R1-7:R2$$$V2.0)	157
CCCC[C@H]1NC(=O)[C@H](Cc2ccccc2)NC(=O)[C@H](CCCCCS)NC(=O)[C@@H](CCCNC(=N)N)NC(=O)[C@H](CC(=O)O)NC(=O)[C@@H](CO)NC(=O)[C@@H](C)NC(=O)[C@H](CCCCN)NC1=O [des4.3.1, SHA-Phe-dNle-Lys-dAla-dSer-Asp-dArg] (HELM PEPTIDE1{D.[dR].[O=C([C@H](CCCCCS)N[*:1])[*:2]].F.[CCCC[C@@H](N[*:1])C(=O)[*:2]].K.[dA].[dS]}$PEPTIDE1,PEPTIDE1,1:R1-8:R2$$$V2.0)	35378
CSCC[C@H]1NC(=O)[C@@H](CO)NC(=O)[C@H](CC(N)=O)NC(=O)[C@H](CC(=O)O)NC(=O)[C@@H]([C@H](C)O)NC(=O)[C@H](Cc2c[nH]c3ccccc23)NC(=O)[C@H](CCCCCS)NC(=O)[C@H](CCCCN)NC(=O)[C@@H](CC(=O)O)NC1=O [des2.1.1, SHA-Trp-dThr-Asp-Asn-dSer-dMet-dAsp-Lys] (HELM PEPTIDE1{D.N.[dS].[dM].[dD].K.[O=C([C@H](CCCCCS)N[*:1])[*:2]].W.[dT]}$PEPTIDE1,PEPTIDE1,1:R1-9:R2$$$V2.0)	5841

---

target: HDAC3 (Homo sapiens, UniProt O15379); construct: purchased Reaction Biology Corporation (assay run by the CRO); test: HDAC3 inhibition, full IC50 measurement (Reaction Biology; fluorogenic p53 peptide RHKK(Ac)AMC); assay type: biochemical; conditions: Conc. 4.12E-08 M, t1
Peptide text beside a SMILES is read from it.

compound	HDAC3 activity raw data (signal)
N=C(N)NCCC[C@H]1NC(=O)[C@@H]2CCCN2C(=O)[C@H](CO)NC(=O)[C@@H](Cc2c[nH]cn2)NC(=O)[C@H](CCCCCS)NC(=O)[C@H](CCCCN)NC(=O)[C@H](Cc2ccc(O)cc2)NC(=O)[C@H]2CCCN2C(=O)[C@@H](CCC(N)=O)NC1=O [des3.1.0, SHA-dHis-Ser-Pro-dArg-dGln-dPro-Tyr-Lys] (HELM PEPTIDE1{K.[O=C([C@H](CCCCCS)N[*:1])[*:2]].[dH].S.P.[dR].[dQ].[dP].Y}$PEPTIDE1,PEPTIDE1,1:R1-9:R2$$$V2.0)	931839
NCCCC[C@@H]1NC(=O)[C@@H]2C[C@@H](O)CN2C(=O)[C@H](CC(N)=O)NC(=O)[C@H](CCCCCS)NC(=O)CNC(=O)[C@H](Cc2c[nH]c3ccccc23)NC(=O)[C@@H](CCCCN)NC(=O)[C@H](CCC(N)=O)NC1=O [des1.1.2, SHA-Asn-Hpr-Lys-Gln-dLys-Trp-Gly] (HELM PEPTIDE1{G.[O=C([C@H](CCCCCS)N[*:1])[*:2]].N.[Hyp].K.Q.[dK].W}$PEPTIDE1,PEPTIDE1,1:R1-8:R2$$$V2.0)	888364
N=C(N)NCCC[C@@H]1NC(=O)[C@@H](CCCNC(=N)N)NC(=O)[C@H]2CCCN2C(=O)[C@@H](Cc2c[nH]cn2)NC(=O)[C@H](Cc2ccc(O)cc2)NC(=O)[C@H](CCCCCS)NC(=O)[C@H](CCc2ccccc2)NC(=O)[C@@H](CO)NC(=O)[C@H](CC(=O)O)NC1=O [des3.3.1, SHA-Tyr-dHis-dPro-dArg-Arg-Asp-dSer-C27] (HELM PEPTIDE1{[O=C([C@H](CCCCCS)N[*:1])[*:2]].Y.[dH].[dP].[dR].R.D.[dS].[O=C([C@H](CCc1ccccc1)N[*:1])[*:2]]}$PEPTIDE1,PEPTIDE1,1:R1-9:R2$$$V2.0)	66179
CC(C)[C@@H]1NC(=O)[C@H](CCCNC(=N)N)NC(=O)[C@@H](CC(=O)O)NC(=O)[C@H](CO)NC(=O)[C@@H](CO)NC(=O)[C@@H](CCC(=O)O)NC(=O)[C@H](Cc2ccc(O)cc2)NC(=O)[C@H](CCCCCS)NC1=O [des4.2.0, SHA-Tyr-dGlu-dSer-Ser-dAsp-Arg-Val] (HELM PEPTIDE1{R.V.[O=C([C@H](CCCCCS)N[*:1])[*:2]].Y.[dE].[dS].S.[dD]}$PEPTIDE1,PEPTIDE1,1:R1-8:R2$$$V2.0)	806773
N=C(N)NCCC[C@@H]1NC(=O)[C@H](Cc2c[nH]c3ccccc23)NC(=O)[C@H](CC(=O)O)NC(=O)[C@@H](CO)NC(=O)[C@H](Cc2c[nH]c3ccccc23)NC(=O)[C@H](CCCCCS)NC(=O)[C@H](CCC(N)=O)NC1=O [des4.1.0, SHA-Trp-dSer-Asp-Trp-Arg-Gln] (HELM PEPTIDE1{D.W.R.Q.[O=C([C@H](CCCCCS)N[*:1])[*:2]].W.[dS]}$PEPTIDE1,PEPTIDE1,1:R1-7:R2$$$V2.0)	681441
